Test system: Inhibin beta A chain (activin A)
Assay method text: INHBA (activin A) binders on microarrays, primary screen, biochemical, small-molecule microarray, 635 nm fluorescence scan (AID 1107);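 note: mouse activin A protein probed at 4.33 µg/mL on printed slides; score merges bound-protein fluorescence near 667 nm with spot signal-to-noise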
Condition details: small-molecule microarray binding, higher = more signal
Each entry below carries its reported composite z-score.
API doc: respond with a numeric literal and nothing else, no unit.

Here's what some known entries look like.
Molecule	composite z-score
COCCCNC(=O)[C@@]1(Cc2ccccc2N=[N+]=[N-])N=C(c2ccc(OCCCO)cc2)O[C@H]1c1ccccc1	1.14
CCOC(=O)C[C@H]1[C@H](OC(=O)c2ccc(C(=O)c3ccccc3)cc2)[C@@H](NC(=O)Cc2ccc(OC)cc2)c2cc(OCCCO)ccc2N1C(=O)c1ccccc1	0.643
COCCOC(=O)N1C(=O)[C@@]2(c3cc(C#Cc4ccc(OC)cc4)ccc31)[C@H](C(=O)Nc1nc3ccccc3s1)[C@H]1C(=O)O[C@H](c3ccccc3)[C@H](c3ccccc3)N1[C@@H]2c1ccc(O)cc1	0.318
CC(C)OC(=O)C=C1C[C@@H](c2ccc(C(F)(F)F)cc2)O[C@@H](c2ccc(C(F)(F)F)cc2)O1	-0.522
CN1C(=O)C2C=CC(C(O)c3ccccn3)N(N(c3ccccc3)c3ccccc3)C2C1=O (stereo not drawn)	0.79
CCCCO[C@H]1C[C@H]2C(I)=C[C@@H]1C(=O)[C@]21CO1	0.173
C=C[C@@H](COC(C)=O)N(C(=O)OC(C)(C)C)S(=O)(=O)c1ccc(Br)cc1	0.824

Now turn to the next molecule.
Request: Could you share which composite z-score value was measured for COC(=O)[C@@]1(Cc2ccc(OC)cc2)[C@H]2c3cc(C(=O)N(C)C)n(CCO)c3C[C@H]2CN1C(=O)c1ccccc1 ?
Response: 1.07

---

Assay method text: small-molecule binders of probe aNOTCH2, primary screen, biochemical, small-molecule microarray, 635/667 nm fluorescence (AID 1121);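 note: score merges feature fluorescence read at 667 nm with its signal to noise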
Condition details: higher = more signal
Please mark 1 if the recorded composite z-score is equal to or greater than -0.07, and -1 if it falls below.

Compound	Cat
COC(=O)[C@@]1(Cc2ccccc2N=[N+]=[N-])N=C(c2ccc(OCCCO)cc2)O[C@H]1c1ccccc1N=[N+]=[N-]	1
CCOC(=O)C[C@H]1[C@H](OC(=O)c2cc3ccccc3oc2=O)[C@@H](NC(=O)Cc2ccc(OC)cc2)c2cc(OCCCO)ccc2N1C(=O)c1ccc2ccccc2n1	1
CCCC[C@@H](O)C1=C(COc2ccccc2)C[C@H]2C(=O)N(C)C(=O)[C@H]2[C@H]1CO	-1

Pending compound:
Request: Item CC(C)C[C@@H]1NC(=O)[C@@H]2C[C@H](C(=O)NCCCCCN)[C@H](c3ccc(O)cc3)N2C1=O with composite z-score of -0.07 or above?
Response: -1

---

Tested on: Neuregulin-1 EGF-like domain
Assay method text: binders of neuregulin-1 EGF-like domain, primary screen, biochemical, small-molecule microarray, 635 nm fluorescence (AID 1081);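 note: binding of the protein to compounds printed on small-molecule microarray slides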
Condition details: small-molecule microarray binding, higher = more signal
Please mark Fulfilled if the recorded composite z-score is equal to or greater than 1, and Not fulfilled if it falls below.

Reference set, count: 3
Cc1ccc(S[C@]2(C(=O)NCC(F)(F)F)CC(=O)N(Cc3ccccc3)[C@@H]2c2ccc(CO)cc2I)cc1 Not fulfilled
O=C1O[C@H](c2ccccc2)[C@H](c2ccccc2)N2[C@H]1[C@@H](C(=O)Nc1nc3ccccc3s1)[C@]1(C(=O)Nc3ccc(C#CC4(O)CCCCCC4)cc31)[C@H]2c1ccccc1OCCO Fulfilled
C=CCOC(=O)[C@H]1[C@@H]2C(=O)O[C@@H](c3ccccc3)[C@@H](c3ccccc3)N2[C@@H](c2ccc(OCCOC(=O)[C@@H]3C[C@@H]4C(=O)N[C@@H](CCCCNC(C)=O)C(=O)N4[C@@H]3c3ccc(O)cc3)cc2)[C@]12C(=O)Nc1ccc(I)cc12 Fulfilled

Pending compound:
Request: Item COC(=O)C(CC#Cc1ccc2c(c1)[C@]1(C(=O)N2)[C@H](c2ccccc2OCCO)N2[C@H](c3ccccc3)[C@H](c3ccccc3)OC(=O)[C@H]2[C@@H]1C(=O)NC[C@H](O)c1ccccc1)C(=O)OC with composite z-score of 1 or above?
Response: Fulfilled

All figures here come from PubChem BioAssay.
